Entry source: ChEMBL document CHEMBL1158167

Assay: Displacement of [3H]8-OH-DPAT from 5HT1A receptor in bovine hippocampi synaptosomal membrane by liquid scintillation spectrometry
Type: tissue-based, Bos taurus, Hippocampus
pKi: −log10 of the molar value.

{"columns": ["Smi", "Operator", "pKi"],
 "data": [
  ["Clc1ccccc1N1CCN(CCc2ccc3nc[nH]c3c2)CC1", "=", 6.61],
  ["Brc1cc(CCN2CCN(c3ccccc3)CC2)cc2[nH]cnc12", "=", 7.62],
  ["Clc1ccccc1N1CCN(CCc2cc(Br)c3nc[nH]c3c2)CC1", "=", 7.05],
  ["FC(F)(F)c1cccc(N2CCN(CCc3cc(Cl)c4nc[nH]c4c3)CC2)c1", "=", 7.68],
  ["COc1ccccc1N1CCN(CCc2cc(Cl)c3nc[nH]c3c2)CC1", "=", 8.28],
  ["c1ccc(N2CCN(CCc3ccc4nc[nH]c4c3)CC2)cc1", "=", 6.71],
  ["c1cnc(N2CCN(CCc3ccc4nc[nH]c4c3)CC2)nc1", "<", 6.00],
  ["Clc1ccccc1N1CCN(CCc2cc(Cl)c3nc[nH]c3c2)CC1", "=", 7.34],
  ["Clc1cc(CCN2CCN(c3ncccn3)CC2)cc2[nH]cnc12", "=", 6.28],
  ["FC(F)(F)c1cccc(N2CCN(CCc3ccc4nc[nH]c4c3)CC2)c1", "=", 7.48],
  ["COc1ccccc1N1CCN(CCc2ccc3nc[nH]c3c2)CC1", "=", 7.69]
]}

====

Experiment: Displacement of [3H]8-OH-DPAT from 5HT1A receptor in bovine hippocampi synaptosomal membrane by liquid scintillation spectrometry
Format: tissue-based, Bos taurus, Hippocampus
Recorded Ki by entry

{"columns": ["Smi", "U", "Ki"],
 "data": [
  ["COc1ccccc1N1CCN(CCc2cc(Br)c3nc[nH]c3c2)CC1", "nM", 1.4],
  ["FC(F)(F)c1cccc(N2CCN(CCc3cc(Br)c4nc[nH]c4c3)CC2)c1", "nM", 0.14],
  ["Clc1cc(CCN2CCN(c3ccccc3)CC2)cc2[nH]cnc12", "nM", 89.6],
  ["Brc1cc(CCN2CCN(c3ncccn3)CC2)cc2[nH]cnc12", "nM", 129]
]}

====

Molecular target: D(2) dopamine receptor (Bos taurus, UniProt P20288)
Sequence (P20288 whole entry): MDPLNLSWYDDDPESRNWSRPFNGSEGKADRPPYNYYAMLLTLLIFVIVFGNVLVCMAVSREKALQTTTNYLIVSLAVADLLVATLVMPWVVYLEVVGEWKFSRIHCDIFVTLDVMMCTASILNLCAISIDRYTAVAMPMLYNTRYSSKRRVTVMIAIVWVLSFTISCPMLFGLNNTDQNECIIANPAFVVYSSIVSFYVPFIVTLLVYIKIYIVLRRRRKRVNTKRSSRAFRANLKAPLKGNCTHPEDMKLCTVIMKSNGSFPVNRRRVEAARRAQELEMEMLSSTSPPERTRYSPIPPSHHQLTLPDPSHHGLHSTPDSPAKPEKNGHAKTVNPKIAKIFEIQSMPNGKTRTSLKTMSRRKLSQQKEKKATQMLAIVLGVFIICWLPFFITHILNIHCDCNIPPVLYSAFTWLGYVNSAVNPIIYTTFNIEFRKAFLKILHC
Experiment: Displacement of [3H]Spiperone from dopamine D2 receptor in bovine caudate nuclei synaptosomal membrane by liquid scintillation spectrometry
pKi: −log10 of the molar value.
Is pKi at least 8? Then Satisfied. If not, Not satisfied.

{"columns": ["Smi", "Class Label"],
 "data": [
  ["FC(F)(F)c1cccc(N2CCN(CCc3cc(Br)c4nc[nH]c4c3)CC2)c1", "Satisfied"],
  ["COc1ccccc1N1CCN(CCc2cc(Cl)c3nc[nH]c3c2)CC1", "Satisfied"],
  ["FC(F)(F)c1cccc(N2CCN(CCc3cc(Cl)c4nc[nH]c4c3)CC2)c1", "Not satisfied"],
  ["Brc1cc(CCN2CCN(c3ncccn3)CC2)cc2[nH]cnc12", "Not satisfied"],
  ["Clc1cc(CCN2CCN(c3ccccc3)CC2)cc2[nH]cnc12", "Not satisfied"],
  ["Clc1ccccc1N1CCN(CCc2cc(Br)c3nc[nH]c3c2)CC1", "Not satisfied"]
]}
